Test system: Rosi cells
Experiment: Cytotoxicity assay (CellTiter 96 AQeous)
Type: cell-based
Settings: Homo sapiens, 48 hours
Experimental: MCF7, MDA-MB-231, 501-MEL, Rosi, A549, SCC-15, SCC-25, UM-SCC-12, UM-SCC-14a, UM-SCC-49 and UM-SCC69 cells were seeded in 96-well tissue culture plates (Corning, New York) at a density of 2.5×10^3 cells/well. […] After 48 hours cell viability was assessed using CellTiter 96® AQeous Non-Radioactive Cell Proliferation Assays (Promega Corporation, Madison Wisconsin). Plates were read after 4 hours with a GloMax® Discover plate reader (Promega Corporation, Madison Wisconsin). […]
Value kind: pEC50
API: returns pEC50 as number; meaning -log10 of concentration in mol/L.

Q. Entry under review: COC(=O)c1c(NC(=O)c2ccccc2C)sc(C(=O)Nc2cccc(C)c2)c1C [Compound 2] . Reported pEC50?
A. 5.50

###

# half-life per entry
Assay: Plasma stability
Assay type: in vitro ADME
Details: mouse plasma; read-out: Plasma Stability (t1/2)

compound="COC(=O)c1c(NC(=O)c2ccccc2C)sc(C(=O)Nc2cccc(C)c2)c1C [Compound 2]" value_kind=half-life result="> 180 min"

// switching to the query compound
Q. Entry under review: O=C(COc1cccc2ccccc12)Nc1ccccc1O [Compound 1] . Reported half-life?
A. > 180 min

###

Tested on: SCC-15 cells
Test: Cytotoxicity assay (CellTiter 96 AQeous)
Type: cell-based
Details: Homo sapiens, 48 hours
Value kind: EC50 (µM)
Your answer is read as µM, so omit the unit and give the number.

Q. Give the reported EC50 for `COC(=O)c1c(NC(=O)c2ccccc2C)sc(C(=O)Nc2cccc(C)c2)c1C` (system: SCC-15 cells).
A. 4.26

###

System: Jurkat cells
Assay: Cytotoxicity assay (Ghost Dye 710 flow cytometry)
Assay type: cell-based
Settings: Homo sapiens, 48 hours
Value kind: EC50 (µM)
Your answer is read as µM, so omit the unit and give the number.

Q. Entry under review: COC(=O)c1c(NC(=O)c2ccccc2C)sc(C(=O)Nc2cccc(C)c2)c1C [Compound 2] . Reported EC50?
A. 224

###

Test: Liver microsomal stability
Assay type: in vitro ADME
Conditions: human liver microsomes; read-out: Liver Microsomal Stability (t1/2) Human
# half-life per entry
Your answer is read as min, so omit the unit and give the number.

structure_smiles_string=O=C(COc1cccc2ccccc12)Nc1ccccc1O unit_tag=min result_number=45.7

// switching to the query molecule
Q. Entry under review: `COC(=O)c1c(NC(=O)c2ccccc2C)sc(C(=O)Nc2cccc(C)c2)c1C` . Reported half-life?
A. 31.1

###

Assay: Liver microsomal stability
Format: in vitro ADME
Conditions: mouse liver microsomes; read-out: Liver Microsomal Stability (t1/2) Mouse
Value kind: half-life
The answer should read as a number with its unit following.

structure_smiles_string=COC(=O)c1c(NC(=O)c2ccccc2C)sc(C(=O)Nc2cccc(C)c2)c1C value_kind=half-life result="17.3 min"

Q. Entry under review: `O=C(COc1cccc2ccccc12)Nc1ccccc1O` . Reported half-life?
A. 20 min

###

Test system: 501-MEL cells
Assay: Cytotoxicity assay (CellTiter 96 AQeous)
Type: cell-based
Conditions: Homo sapiens, 48 hours
Value kind: EC50

Q. Entry under review: `COC(=O)c1c(NC(=O)c2ccccc2C)sc(C(=O)Nc2cccc(C)c2)c1C` . Reported EC50?
A. 60.6 µM
